Biological target: human KV7.2/KV7.3 (Homo sapiens (Human), UniProt O43525+O43526)
Experiment: Potassium flux assay (IPG-2 AM dye)
Conditions: TREX HEK 293 or HEK 293 cells expressing human KV7.2/KV7.3; arithmetic mean values
Property Measured: EC50

| Compound Structure String | EC50 |
| --- | --- |
| Clc1ccc(Nc2nccc3cc(OCc4cn[nH]c4C4CC4)ccc23)cn1 | < 1 µM |
| CC(=O)N1CCC(Oc2ccc3c(Nc4ccc(Cl)nc4)nccc3c2)CC1 | 1 to 10 µM |

Attention now shifts to the item below.
query: Recall the reported EC50 of COC1(COc2ccc3c(Nc4cnc(C)nc4)nccc3c2)CC1 when tested on human KV7.2/KV7.3 (Homo sapiens (Human), UniProt O43525+O43526).
result: 1 to 10 µM
